Tested on: Danio rerio larvae (5 dpf)
EXPERIMENT NOTES: difference in startle response vs DMSO (percentage points); higher = stronger startle than DMSO
CONDITION SET: 10 µM; exposure time 6 h
Where a name gives a salt, the structure may show the parent alone.
READOUT: difference in startle response
Respond numerically, and do not add a unit to the figure.

Worked cases, difference in startle response given:
MOLECULE	difference in startle response
CCN(CC)C(=O)[C@@]1(c2ccccc2)C[C@H]1CN [Levomilnacipran (hydrochloride)]	0.949
CC(C(=O)O)c1cccc(Oc2ccccc2)c1 (configuration not stated) [Fenoprofen (calcium salt hydrate)]	0.479
O=C(O)c1cn(C2CC2)c2cc(N3CCNCC3)c(F)cc2c1=O [Ciprofloxacin (hydrochloride)]	-3.39
Cc1nc(Nc2ncc(C(=O)Nc3c(C)cccc3Cl)s2)cc(N2CCN(CCO)CC2)n1	-1.6
COc1ccc2c(c1)c(CC(=O)O)c(C)n2C(=O)c1ccc(Cl)cc1	1.79

## Input Given CO[C@H]1/C=C/O[C@@]2(C)Oc3c(C)c(O)c4c(O)c(c(/C=N/N5CCN(C6CCCC6)CC5)c(O)c4c3C2=O)NC(=O)/C(C)=C\C=C\[C@H](C)[C@H](O)[C@@H](C)[C@@H](O)[C@@H](C)[C@H](OC(C)=O)[C@@H]1C , state its recorded difference in startle response.
## Output -0.153

## Input Follow-up entry: NC(=O)N1c2ccccc2CC(=O)c2ccccc21 [Oxcarbazepine]
## Output 8.33

* * *

Test system: Danio rerio larvae (5 dpf)
EXPERIMENT NOTES: difference in excitability vs DMSO (percentage points); higher = more excitable than DMSO
CONDITION SET: 10 µM; exposure time 6 h
Where a name gives a salt, the structure may show the parent alone.
READOUT: difference in excitability

Example results:
MOLECULE	EXPERIMENTAL TARGET	difference in excitability
O=C(c1ccc(OCCN2CCCCC2)cc1)c1c(-c2ccc(O)cc2)sc2cc(O)ccc12 [Raloxifene (hydrochloride)]	Danio rerio larvae (5 dpf)	22
C=C1/C(=C\C=C2/CCC[C@]3(C)[C@@H]([C@H](C)CCCC(C)(C)O)CC[C@@H]23)C[C@@H](O)C[C@@H]1O [Calcitriol]	Danio rerio larvae (5 dpf)	7.32
CC(=O)S[C@@H]1CC2=CC(=O)CC[C@]2(C)[C@H]2CC[C@@]3(C)[C@@H](CC[C@@]34CCC(=O)O4)[C@H]12 [Spironolactone]	Danio rerio larvae (5 dpf)	2.95
CN1[C@@H]2CC[C@H]1C[C@@H](OC(c1ccccc1)c1ccccc1)C2 [Benztropine (mesylate)]	Danio rerio larvae (5 dpf)	-5.24
C=CC1=C(C(=O)O)N2C(=O)[C@@H](NC(=O)/C(=N\O)c3csc(N)n3)[C@H]2SC1 [Cefdinir]	Danio rerio larvae (5 dpf)	6.83
CC(=O)O[C@H]1C[C@@H]2CC[C@@H]3[C@H](CC[C@@]4(C)[C@H]3C[C@H]([N+]3(C)CCCCC3)[C@@H]4OC(C)=O)[C@@]2(C)C[C@@H]1N1CCCCC1 [Vecuronium (bromide)]	Danio rerio larvae (5 dpf)	11.8
FCOC(C(F)(F)F)C(F)(F)F [Sevoflurane]	Danio rerio larvae (5 dpf)	-1.7
CN(C)CCOC(c1ccccc1)c1ccccc1 [Diphenhydramine (hydrochloride)]	Danio rerio larvae (5 dpf)	-0.341

## Input Item under review: COC(=O)[C@H](c1ccccc1Cl)N1CCc2sccc2C1 (racemic) [(±)-Clopidogrel (hydrochloride)] . Reported difference in excitability?
## Output 11.3

## Input Moving on to COc1cccc2c1C(=O)c1c(O)c3c(c(O)c1C2=O)C[C@@](O)(C(=O)CO)C[C@@H]3O[C@H]1C[C@H](N)[C@@H](O)[C@H](C)O1 [Epirubicin (hydrochloride)]
## Output 9.14

## Input Also, Cc1cc(NS(=O)(=O)c2ccc(N)cc2)no1 [Sulfamethoxazole] please.
## Output 0.0564
